Target: T1, canine NGF tagged at the C-terminus with the Flag tag (canine, UniProt A0A8I3PYI3 122-241)
T1 construct: mature; Expressed with baculovirus technology; also called feline NGF (processed form identical)
T1 sequence (A0A8I3PYI3 entry or part of it): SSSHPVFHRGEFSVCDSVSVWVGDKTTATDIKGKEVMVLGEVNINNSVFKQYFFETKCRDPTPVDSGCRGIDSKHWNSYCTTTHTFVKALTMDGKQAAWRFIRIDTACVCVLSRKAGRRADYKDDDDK
Assay: SPR off-rate screen, Fab-SASA on BSA chip
readout_type: Ratio WT-kd/clone-kd
Numbers only.

felinized clone 101 Fab-SASA variant Y52W (VH) (Fab, V domains shown, not shown: small tags and cut ends) VH: DVQLVESGGDLVKPGGSLRLTCVASGLSLTSSSMSWVRQAPGKGLQWVSTIWSNGGTYYTDSVKGRFTISKDNAENTLYLQMNNLKTEDTATYYCASIYYYDADYLHWYFDFWGQGALVTVSS VL: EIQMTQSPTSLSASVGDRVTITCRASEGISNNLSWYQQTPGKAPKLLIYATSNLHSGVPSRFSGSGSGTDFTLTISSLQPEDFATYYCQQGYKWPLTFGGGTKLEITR :: 1.45

API: the following record is the query input.
Q: For felinized clone 101 Fab-SASA variant S53P (VH) (Fab, V domains shown, not shown: small tags and cut ends) VH: DVQLVESGGDLVKPGGSLRLTCVASGLSLTSSSMSWVRQAPGKGLQWVSTIYPNGGTYYTDSVKGRFTISKDNAENTLYLQMNNLKTEDTATYYCASIYYYDADYLHWYFDFWGQGALVTVSS VL: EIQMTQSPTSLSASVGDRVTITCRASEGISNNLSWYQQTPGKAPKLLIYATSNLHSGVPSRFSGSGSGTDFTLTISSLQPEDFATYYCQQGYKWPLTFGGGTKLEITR , write its Ratio WT-kd/clone-kd.
Ans: 1.36
